- Assay System: feline FcRn complex (FcRn-α subunit and β-microglobulin), biotin labeled (feline)
- Procedure Text: SPR, pH 6
Readout Label: Kd (nM)
Number only, in nM; omit the unit.

feline IgG1a S252H/S428M/Q311W (antibody, part only; not given: Variable domains, not shown: another chain or arm of the molecule) constant: ASTTAPSVFPLAPSCGTTSGATVALACLVLGYFPEPVTVSWNSGALTSGVHTFPAVLQASGLYSLSSMVTVPSSRWLSDTFTCNVAHPPSNTKVDKTVRKTDHPPGPKPCDCPKCPPPEMLGGPSIFIFPPKPKDTLHISRTPEVTCLVVDLGPDDSDVQITWFVDNTQVYTAKTSPREEQFNSTYRVVSVLPILHWDWLKGKEFKCKVNSKSLPSPIERTISKAKGQPHEPQVYVLPPAQEELSRNKVSVTCLIKSFHPPDIAVEWEITGQPEPENNYRTTPPQLDSDGTYFVYSKLSVDRSHWQRGNTYTCSVMHEALHSHHTQKSLTQSPGK has a reported Kd of 3.14
